Tested on: NCI-H522 lung
assay_overview: NCI tumour cell line growth inhibition, 48 h
endpoint_label: TGI

> print(dat)
                                    molecule  target.of.assay  obs.value
 1  COc1cc(-c2ccc(=O)oc2C#Cc2ccccc2)cc(OC)c1OC    NCI-H522 lung   > 100 µM
 2  O=C(O)c1c[nH]c2c(ccc3[nH]cc(C(=O)O)c(=O)c32)c1=O    NCI-H522 lung   > 100 µM
 3              CCCCc1c2c(nc3c1CCCC3=O)CCCC2    NCI-H522 lung   > 100 µM
 4     N#Cc1c(O)c(C=O)c(=O)n2c1[nH]c1ccccc12    NCI-H522 lung   > 100 µM
 5      CCOC(=O)C1=C(O)c2ccc(OC)cc2C(=O)C1=O    NCI-H522 lung   > 100 µM
 6  C1=CC(=NN=P(c2ccccc2)(c2ccccc2)c2ccccc2)C=C1    NCI-H522 lung   > 100 µM
 7  Cc1nc2cc(Nc3nc(Nc4ccc(F)cc4)nc(N4CCCC4)n3)ccc2n1Cc1ccccc1    NCI-H522 lung    4.07 µM
 8  O=C(O)C1C2CCC(O2)C1C(=O)NCc1cccnc1 (configuration not stated)    NCI-H522 lung   > 100 µM
 9  COc1ccc2c(c1)C(=O)c1c-2c(OCCN2CCCCC2)nc2ccc(OC)cc12    NCI-H522 lung    2.11 µM
10  COC(=O)CN(CC1O[C@@H]2OC(C)(C)O[C@@H]2C1NC(C)=O)C(=O)OCc1ccccc1 (some centres not stated)    NCI-H522 lung   > 100 µM
11  COc1cc(CC(=O)c2cc3c(cc2-c2ccccc2)OCO3)cc(OC)c1OC    NCI-H522 lung   > 100 µM
12  Cn1c(=O)c(-c2c(Cl)cccc2Cl)cc2cnc(Nc3ccc(I)cc3)nc21    NCI-H522 lung    1.89 µM
13  CCOC(=O)CCC(C(=O)OCC)n1nnc2ccc(Nc3c(C)[n+]([O-])c4cc(F)c(OCC)cc4[n+]3[O-])cc21 (configuration not stated)    NCI-H522 lung   > 100 µM
14  COc1cccc2c1C(=O)c1c(O)c3c(c(O)c1C2=O)CC(O)(C(C)=O)CC3O (configuration not stated)    NCI-H522 lung    3.09 µM
15                      O=C(NCCCl)NCc1ccccc1    NCI-H522 lung   > 100 µM
16  O=C1C(Cl)C(c2ccc([N+](=O)[O-])cc2)N1n1cnc2ccccc2c1=O (configuration not stated)    NCI-H522 lung   > 100 µM
17  CC(=O)Nc1ccc(Cc2ccc3[nH]c(=O)cc(C)c3c2)cc1    NCI-H522 lung   > 100 µM
18                 N/C(=N/N=C/c1cccc(F)c1)NO    NCI-H522 lung    96.1 µM
19  O=C1C(=O)N(C23CC4CC(CC(C4)C2)C3)C(=S)N1c1ccccc1    NCI-H522 lung   > 100 µM
20      O=C(O)CCCc1cc2c(s1)-c1cccc3cccc-2c13    NCI-H522 lung    51.1 µM
21  Nc1nc(N)c2nc(CNc3ccc(C(=O)NC(CCNC(=O)c4ccccc4C(=O)O)C(=O)O)cc3)cnc2n1 (configuration not stated)    NCI-H522 lung   > 100 µM
22  C[C@H]1CCC2C(CN3CCCCC3)C(=O)OC2[C@]2(C)C(=O)CC(N3CCCCC3)C12O (some centres not stated)    NCI-H522 lung    3.25 µM
